test: Serum and intratumor drug concentration at experimental endpoint, DLD1 model; assay type: in vivo, mice; conditions: Swiss Nu/nu, mouse, serum, oral, as part of ODC; 1h post-treatment at endpoint (day 15); regorafenib 15, erlotinib 12.5, selumetinib 5, vemurafenib 75 mg/kg; read-out: concentration serum
Listed below: concentration at 1 h values for each entry.
Provide only the numeric value, understood in ng/mL.

- chemical.string: "CCCS(=O)(=O)Nc1ccc(F)c(C(=O)c2c[nH]c3ncc(-c4ccc(Cl)cc4)cc23)c1F"
  concentration at 1 h, ng/mL: 910

## Input # query: concentration at 1 h of entry `Cn1cnc2c(F)c(Nc3ccc(Br)cc3Cl)c(C(=O)NOCCO)cc21`
## Output 3490

## Input Fill in the blank: the reported concentration at 1 h of `CNC(=O)c1cc(Oc2ccc(NC(=O)Nc3ccc(Cl)c(C(F)(F)F)c3)c(F)c2)ccn1` is ____.
## Output 1830

## Input Please look up its concentration at 1 h: `C#Cc1cccc(Nc2ncnc3cc(OCCOC)c(OCCOC)cc23)c1`
## Output 3040

---

Items are presented alongside their recorded Cmax.
test: Pharmacokinetics, dried blood spot LC-MS/MS, mice with DLD1 tumors; type: in vivo; details: Swiss Nu/nu, mouse, whole blood (dried blood spot), po, given as part of DLD1-specific ODC; whole blood; regorafenib 15, erlotinib 12.5, selumetinib 5, vemurafenib 75 mg/kg; mean ± SD
Reply numerically in ng/mL, unit not repeated.

These solved cases illustrate the format of a correct answer.
- chemical.string: "Cn1cnc2c(F)c(Nc3ccc(Br)cc3Cl)c(C(=O)NOCCO)cc21"
  experimental.readout: "Cmax"
  value.observed: 3830
- chemical.string: "CCCS(=O)(=O)Nc1ccc(F)c(C(=O)c2c[nH]c3ncc(-c4ccc(Cl)cc4)cc23)c1F"
  experimental.readout: "Cmax"
  value.observed: 1050
- chemical.string: "C#Cc1cccc(Nc2ncnc3cc(OCCOC)c(OCCOC)cc23)c1"
  experimental.readout: "Cmax"
  value.observed: 3370

Would you kindly look at the next entry?
## Input What value of Cmax has been reported for the following compound? `CNC(=O)c1cc(Oc2ccc(NC(=O)Nc3ccc(Cl)c(C(F)(F)F)c3)c(F)c2)ccn1`
## Output 3380

---

In this section, each of the molecules is paired with its reported Tmax.
Experiment: Pharmacokinetics, dried blood spot LC-MS/MS, mice with DLD1 tumors
Format: in vivo
Settings: Swiss Nu/nu, mouse, whole blood (dried blood spot), po, given as part of DLD1-specific ODC; regorafenib 15, erlotinib 12.5, selumetinib 5, vemurafenib 75 mg/kg
Method: The pharmacokinetic (PK) study was performed using the dried blood spot method. Mice were treated with CTRL, ODCs, and corresponding monotherapies as described above. To determine the disposition in blood in the first 24h, blood samples (5 µL/mouse) were collected from the tail vein (n = 4 mice) at 2h, 4h, 8h, and 24h time points and transferred onto paper (a filter paper 903 protein saver card from Whatman (MA, USA)). […]
Response body: numeric value in h, unit text excluded.

Use the examples below as a reference point.
- molecule: "CCCS(=O)(=O)Nc1ccc(F)c(C(=O)c2c[nH]c3ncc(-c4ccc(Cl)cc4)cc23)c1F [vemurafenib]"
  result.unit: "h"
  Tmax: 4
- molecule: "Cn1cnc2c(F)c(Nc3ccc(Br)cc3Cl)c(C(=O)NOCCO)cc21 [selumetinib]"
  result.unit: "h"
  Tmax: 2
- molecule: "C#Cc1cccc(Nc2ncnc3cc(OCCOC)c(OCCOC)cc23)c1 [erlotinib]"
  result.unit: "h"
  Tmax: 2

## Input Consider the molecule shown here: CNC(=O)c1cc(Oc2ccc(NC(=O)Nc3ccc(Cl)c(C(F)(F)F)c3)c(F)c2)ccn1 [regorafenib] What is its recorded Tmax?
## Output 4
